All values here come from patent US20240300987A1.

Test system: HIF1α
Experiment: Drug activity assay using MIO-M1 HRE/GFP cell line under hypoxia
Assay type: cell-based
Details: Table 9; HIF1α inhibition, relative to SMX of the same table
Method: After transfection (jetPRIME kit) of MIO-M1 Müller cells with 5HRE/GFP plasmid (Addgene, #46926), the cells transfected with the plasmid were selected using 1 mg/ml of G418 (Neomycin), a selectable marker. […] After being exposed to a hypoxic environment (1% O2) for 24 hours, the GFP (Ex/Em: 488/507) fluorescence signal was measured using a SYNERGY NEO microplate reader (BioTek Instrument). The relative fluorescence value was calculated on the basis of 100% of the negative control group.
Activity compared to that of SMX of 3 or higher: TRUE. Under 3: FALSE.

Some solved entries appear below for comparison.
- COc1cc(C)c(CCCCCCCCCC[P+](c2ccccc2)(c2ccccc2)c2ccccc2)cc1OC: TRUE
- COC1=C(OC)C(=O)C(CCCCCCCCCC[P+](c2ccccc2)(c2ccccc2)c2ccccc2)=C(C)C1=O [SMX, reference compound]: FALSE
- c1ccc([P+](CCCCCCCCCCC2CCCCC2)(c2ccccc2)c2ccccc2)cc1: TRUE
- CC1=C(CCCCCCCCCC[P+](c2ccccc2)(c2ccccc2)c2ccccc2)C(=O)c2ccccc2C1=O: TRUE

Please look at the following compound next.
Prompt line: Given the entry COc1c(C)c(CCCCCCCCCC[P+](c2ccccc2)(c2ccccc2)c2ccccc2)c(OC)c(OC)c1OC , answer whether its Activity compared to that of SMX meets or surpasses 3.
Response line: TRUE

###

Molecular target: human full-length TRAP1 protein (Homo sapiens)
Construct: containing human full-length TRAP1 protein (400 nM); hexahistidine tag followed by TEV protease cleavage site (N, cleaved yes); made in house; host or cells: E. coli BL21 (DE3)
Experiment: Fluorescence polarization (FP) analysis using SB-TM2 probe (client-binding site)
Details: Table 1, alkyl-TPPs; FP analysis using SB-TM2
pIC50: −log10 of the molar value.
pIC50 of 6 or higher: Yes. Under 6: No.

Some solved entries appear below for comparison.
* COC1=C(OC)C(=O)C(CCCCCCCCCC[P+](c2ccccc2)(c2ccccc2)c2ccccc2)=C(C)C1=O [SMX, reference compound] | Yes
* CCCCCCCC[P+](c1ccccc1)(c1ccccc1)c1ccccc1 | No
* CCCCCCCCCCCCCC[P+](c1ccccc1)(c1ccccc1)c1ccccc1 | Yes

Prompt line: Given the entry CCCCCCCCCCCCCCCC[P+](c1ccccc1)(c1ccccc1)c1ccccc1 , answer whether its pIC50 meets or surpasses 6.
Response line: Yes

Prompt line: Given the entry CCCCCCCCCCCC[P+](c1ccccc1)(c1ccccc1)c1ccccc1 , answer whether its pIC50 meets or surpasses 6.
Response line: Yes

Prompt line: Given the entry CCCCCC[P+](c1ccccc1)(c1ccccc1)c1ccccc1.[Br-] [TPP-6, hexyltriphenylphosphonium bromide, reference compound] , answer whether its pIC50 meets or surpasses 6.
Response line: No

###

Entries and their Activity compared to that of SMX values follow.
Target: human full-length TRAP1 protein (Homo sapiens)
Construct: containing human full-length TRAP1 protein (400 nM); hexahistidine tag followed by TEV protease cleavage site (N, cleaved yes); made in house; host or cells: E. coli BL21 (DE3)
Assay: Fluorescence polarization (FP) analysis using SB-TM2 probe (client-binding site)
Settings: Table 1; TRAP1 binding, relative to SMX of the same table
Reply briefly: the number, and no unit.

Consider the following illustrative entries.
* COC1=C(OC)C(=O)C(CCCCCCCCCC[P+](c2ccccc2)(c2ccccc2)c2ccccc2)=C(C)C1=O [SMX, reference compound] | 1
* CCCCCCCCCC[P+](c1ccccc1)(c1ccccc1)c1ccccc1 [TPP-10, Decyltriphenylphosphonium] | 0.90
* CCCCCCCCCCCCCC[P+](c1ccccc1)(c1ccccc1)c1ccccc1 [TPP-14, Tetradecyltriphenylphosphonium] | 1.62
* CCCCCCCC[P+](c1ccccc1)(c1ccccc1)c1ccccc1 [TPP-8, Octyltriphenylphosphonium] | 0.24
* CCCCCC[P+](c1ccccc1)(c1ccccc1)c1ccccc1.[Br-] [TPP-6, hexyltriphenylphosphonium bromide, reference compound] | 0.03
* CCCCCCCCCCCCCCCC[P+](c1ccccc1)(c1ccccc1)c1ccccc1 [TPP-16, Hexadecyltriphenylphosphonium] | 2.01

Now turn to the next compound.
Prompt line: Check the records and state Activity compared to that of SMX for CCCCCCCCCCCC[P+](c1ccccc1)(c1ccccc1)c1ccccc1 [TPP-12, Dodecyltriphenylphosphonium]
Response line: 1.65

###

Target: human full-length TRAP1 protein (Homo sapiens, UniProt Q12931)
Construct: containing human full-length TRAP1 protein (400 nM); hexahistidine tag followed by TEV protease cleavage site (N, cleaved yes); made in house; host or cells: E. coli BL21 (DE3)
Sequence (Q12931 60-704): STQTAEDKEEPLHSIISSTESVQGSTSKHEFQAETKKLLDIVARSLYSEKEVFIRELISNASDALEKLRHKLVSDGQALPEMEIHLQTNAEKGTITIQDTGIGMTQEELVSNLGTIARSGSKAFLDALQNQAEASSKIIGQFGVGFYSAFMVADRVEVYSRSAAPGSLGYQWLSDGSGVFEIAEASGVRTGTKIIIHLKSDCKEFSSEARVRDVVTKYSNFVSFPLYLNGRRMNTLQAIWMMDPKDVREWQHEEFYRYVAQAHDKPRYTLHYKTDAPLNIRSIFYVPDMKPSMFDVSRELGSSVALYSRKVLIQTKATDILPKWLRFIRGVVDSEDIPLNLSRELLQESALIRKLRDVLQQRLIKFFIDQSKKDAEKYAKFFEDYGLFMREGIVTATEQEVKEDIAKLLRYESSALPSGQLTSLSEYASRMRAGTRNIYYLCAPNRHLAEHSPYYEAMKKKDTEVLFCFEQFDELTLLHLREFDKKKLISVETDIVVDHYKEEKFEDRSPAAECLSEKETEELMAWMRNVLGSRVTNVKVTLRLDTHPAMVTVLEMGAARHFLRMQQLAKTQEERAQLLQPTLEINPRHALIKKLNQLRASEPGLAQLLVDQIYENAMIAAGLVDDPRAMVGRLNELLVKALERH
Assay: Fluorescence polarization (FP) analysis using SB-TM2 probe (client-binding site)
Conditions: Table 4, other synthetic compounds; FP analysis using SB-TM2
metric_name: log10(IC50) (log10 of the value in nM)
Note the log scale: values are log10 of IC50 expressed in nM.

• COc1c(C)c(CCCCCCCCCC[P+](c2ccccc2)(c2ccccc2)c2ccccc2)c(OC)c(OC)c1OC = 2.91

Prompt line: State recorded log10(IC50) with human full-length TRAP1 protein (Homo sapiens, UniProt Q12931), entry COC1=C(OC)C(=O)C(CCCCCCCCCC[P+](c2ccccc2)(c2ccccc2)c2ccccc2)=C(C)C1=O [SMX, reference compound] , no comment.
Response line: 2.61

Prompt line: State recorded log10(IC50) with human full-length TRAP1 protein (Homo sapiens, UniProt Q12931), entry COc1cc(C)c(CCCCCCCCCC[P+](c2ccccc2)(c2ccccc2)c2ccccc2)cc1OC , no comment.
Response line: 3.26

Prompt line: State recorded log10(IC50) with human full-length TRAP1 protein (Homo sapiens, UniProt Q12931), entry c1ccc(CCCCCCCCCC[P+](c2ccccc2)(c2ccccc2)c2ccccc2)cc1 , no comment.
Response line: 3.47

Prompt line: State recorded log10(IC50) with human full-length TRAP1 protein (Homo sapiens, UniProt Q12931), entry CC1=C(CCCCCCCCCC[P+](c2ccccc2)(c2ccccc2)c2ccccc2)C(=O)c2ccccc2C1=O , no comment.
Response line: 2.22

###

Biological target: human full-length TRAP1 protein (Homo sapiens)
Construct: containing human full-length TRAP1 protein (400 nM); hexahistidine tag followed by TEV protease cleavage site (N, cleaved yes); made in house; host or cells: E. coli BL21 (DE3)
Assay: Fluorescence polarization (FP) analysis using SB-TM2 probe (client-binding site)
Conditions: Table 3; TRAP1 binding, relative to SMX of the same table
metric_name: Activity compared to that of SMX
Reply briefly: the number, and no unit.

Consider the following illustrative entries.
• COc1c(O)c(C)c(CCCCCCCCCC[P+](c2ccccc2)(c2ccccc2)c2ccccc2)c(Br)c1OC = 0.8701
• COC1=C(OC)C(=O)C(CCCCCCCCCC[P+](c2ccccc2)(c2ccccc2)c2ccccc2)=C(C)C1=O [SMX, reference compound] = 1
• COc1c(C)c(CCCCCCCCCC[P+](c2ccccc2)(c2ccccc2)c2ccccc2)c(Br)c(OC)c1OC = 1.315

Now turn to the next compound.
Prompt line: Check the records and state Activity compared to that of SMX for COc1c(Br)c(C)c(CCCCCCCCCC[P+](c2ccccc2)(c2ccccc2)c2ccccc2)c(OC)c1OC
Response line: 1.156

###

Entries and their Activity compared to that of SMX values follow.
Test system: HIF1α
Test: Drug activity assay using MIO-M1 HRE/GFP cell line under hypoxia
Assay type: cell-based
Conditions: Table 6; HIF1α inhibition, relative to SMX of the same table
Reply briefly: the number, and no unit.

Consider the following illustrative entries.
- CCCCCCCC[P+](c1ccccc1)(c1ccccc1)c1ccccc1 [TPP-8, Octyltriphenylphosphonium]: 0.73
- CCCCCC[P+](c1ccccc1)(c1ccccc1)c1ccccc1.[Br-] [TPP-6, hexyltriphenylphosphonium bromide, reference compound]: 0.33
- CCCCCCCCCC[P+](c1ccccc1)(c1ccccc1)c1ccccc1 [TPP-10, Decyltriphenylphosphonium]: 1.49
- CCCCCCCCCCCCCCCC[P+](c1ccccc1)(c1ccccc1)c1ccccc1 [TPP-16, Hexadecyltriphenylphosphonium]: 15.59
- CCCCCCCCCCCCCC[P+](c1ccccc1)(c1ccccc1)c1ccccc1 [TPP-14, Tetradecyltriphenylphosphonium]: 13.76

Prompt line: Check the records and state Activity compared to that of SMX for COC1=C(OC)C(=O)C(CCCCCCCCCC[P+](c2ccccc2)(c2ccccc2)c2ccccc2)=C(C)C1=O [SMX, reference compound]
Response line: 1

Prompt line: Check the records and state Activity compared to that of SMX for CCCCCCCCCCCC[P+](c1ccccc1)(c1ccccc1)c1ccccc1 [TPP-12, Dodecyltriphenylphosphonium]
Response line: 4.21
